- tested_on: human BCL6 BTB domain (Trx-6xHis-BCL6) (Homo sapiens (Human))
- experiment_summary: HTRF in vitro assay (BCL6 BTB domain / BCOR-AF633 peptide)
- Format: binding
- condition_notes: further generated data (Table 1b); 1 nM Trx-6xHis-BCL6, 0.5 nM anti-6xHis-Terbium cryptate
result_type: HTRF pIC50
// no unit, no text: just the number

Q: What HTRF pIC50 appears in the records for this compound with human BCL6 BTB domain (Trx-6xHis-BCL6) (Homo sapiens (Human))? COCC(C)(C)Nc1cc(=O)n(C)c2ccc(Nc3ccnc(Cl)c3C#N)cc12 [Example 19d]
Result: 6.51

Q: What HTRF pIC50 appears in the records for this compound with human BCL6 BTB domain (Trx-6xHis-BCL6) (Homo sapiens (Human))? Cn1c(=O)cc(NC2(C)CC2)c2cc(Nc3cc(C(=O)O)nc(Cl)c3C#N)ccc21
Result: 6.38

Q: What HTRF pIC50 appears in the records for this compound with human BCL6 BTB domain (Trx-6xHis-BCL6) (Homo sapiens (Human))? Cc1nnc(C(C)Nc2cc(=O)n(C)c3ccc(Nc4ccnc(Cl)c4C#N)cc23)o1 (centres unmarked)
Result: 5.93

Q: What HTRF pIC50 appears in the records for this compound with human BCL6 BTB domain (Trx-6xHis-BCL6) (Homo sapiens (Human))? CC(Nc1cc(=O)n(C)c2ccc(Nc3ccnc(C#N)c3Cl)cc12)c1ncccn1 (centres unmarked) [Example 19h]
Result: 6.17

Q: What HTRF pIC50 appears in the records for this compound with human BCL6 BTB domain (Trx-6xHis-BCL6) (Homo sapiens (Human))? CC(Nc1cc(=O)n(C)c2ccc(Nc3nc(N4CCc5nn(C)cc5C4)ncc3Cl)cc12)c1ncccn1 (centres unmarked) [Example 17k]
Result: 6.11

Q: What HTRF pIC50 appears in the records for this compound with human BCL6 BTB domain (Trx-6xHis-BCL6) (Homo sapiens (Human))? CC(Nc1cc(=O)n(C)c2ccc(Nc3ccnc(Cl)c3C#N)cc12)c1cc2ccccc2cn1 (centres unmarked) [Example 24e]
Result: 6.38

Q: What HTRF pIC50 appears in the records for this compound with human BCL6 BTB domain (Trx-6xHis-BCL6) (Homo sapiens (Human))? CC(C)(Nc1cc(=O)n(CC2CCCCC2)c2ccc(Nc3ccnc(Cl)c3C#N)cc12)c1ncccn1 [Example 10o]
Result: 6.50

Q: What HTRF pIC50 appears in the records for this compound with human BCL6 BTB domain (Trx-6xHis-BCL6) (Homo sapiens (Human))? CC(Nc1cc(=O)n(C)c2ccc(Nc3nc(N4CC(C)(C#N)C4)ncc3Cl)cc12)c1ncccn1 (centres unmarked) [Example 17j]
Result: 6.18

* * *

- tested_on: human BCL6 BTB domain (Trx-6xHis-BCL6) (Homo sapiens (Human), UniProt P41182)
- experiment_summary: HTRF in vitro assay (BCL6 BTB domain / BCOR-AF633 peptide)
- Assay type: binding
- condition_notes: further generated data (Table 1b); 1 nM Trx-6xHis-BCL6, 0.5 nM anti-6xHis-Terbium cryptate; read-out: HTRF pIC50 (converted)
Binarize IC50 at 500 nM; below is 1 (yes), at or above is 0 (no).

Q: In the record for CC(Nc1nc(=O)n(C)c2ccc(Nc3nc(N4C[C@@H](C)C(F)(F)[C@@H](C)C4)ncc3Cl)cc12)c1ncccn1 (mixture of isomers) [Example 12h] , is IC50 less than 500 nM?
Result: 1 (yes)

Q: In the record for CC[C@@H]1C[C@H]1Nc1cc(=O)n(C)c2ccc(Nc3cc(C(=O)O)nc(Cl)c3C#N)cc12 (racemic) , is IC50 less than 500 nM?
Result: 1 (yes)

Q: In the record for COC[C@@H]1CCCN1C(=O)c1cc(Nc2ccc3c(c2)c(NC(C)(C)c2ncccn2)cc(=O)n3C)c(C#N)c(Cl)n1 , is IC50 less than 500 nM?
Result: 1 (yes)

Q: In the record for CC(Nc1cc(=O)n(C)c2ccc(Nc3nc(N4CCC(C(=O)N(C)C)CC4)ncc3Cl)cc12)c1ncccn1 (centres unmarked) [Example 17c] , is IC50 less than 500 nM?
Result: 1 (yes)

Q: In the record for CNC(=O)c1cc(Nc2ccc3c(c2)c(NC(C)C2CC2)cc(=O)n3C)c(C#N)c(Cl)n1 (centres unmarked) , is IC50 less than 500 nM?
Result: 1 (yes)

Q: In the record for CNC(=O)c1cc(Nc2ccc3c(c2)c(NC2CCC2OC)cc(=O)n3C)c(C#N)c(Cl)n1 (racemic) [Example 23b] , is IC50 less than 500 nM?
Result: 1 (yes)

Q: In the record for COc1cc(Nc2nc(N3CCC(C(=O)N(C)C)CC3)ncc2Cl)cc2c(NC(C)(C)c3ncccn3)cc(=O)n(C)c12 [Example 12c] , is IC50 less than 500 nM?
Result: 0 (no)

Q: In the record for COC1CCC1Nc1cc(=O)n(C)c2ccc(Nc3ccnc(Cl)c3C#N)cc12 (racemic) [Example 22b] , is IC50 less than 500 nM?
Result: 0 (no)

Q: In the record for CNC(=O)c1cc(Nc2ccc3c(c2)c(N[C@H]2CCC[C@H]2OC)cc(=O)n3C)c(C#N)c(Cl)n1 (racemic) [Example 19g] , is IC50 less than 500 nM?
Result: 0 (no)

Q: In the record for COC1CCC1Nc1cc(=O)n(C)c2ccc(Nc3ccnc(Cl)c3C#N)cc12 (racemic) [Example 22a] , is IC50 less than 500 nM?
Result: 1 (yes)

Q: In the record for CNC(=O)c1cc(Nc2ccc3c(c2)c(NC2CCC2OC)cc(=O)n3C)c(C#N)c(Cl)n1 (racemic) [Example 23a] , is IC50 less than 500 nM?
Result: 1 (yes)

Q: In the record for CCNc1cc(=O)n(CCOCCOC)c2ccc(Nc3ccnc(Cl)c3C#N)cc12 , is IC50 less than 500 nM?
Result: 0 (no)

Q: In the record for CNC(=O)c1cc(Nc2ccc3c(c2)c(NC(C)c2ncccn2)cc(=O)n3C)c(C#N)cn1 (centres unmarked) [Example 19c] , is IC50 less than 500 nM?
Result: 0 (no)

Q: In the record for COc1cc(Nc2ccc3c(c2)c(N[C@H](CO)C2CC2)cc(=O)n3C)c(Cl)cn1 [Example 15c] , is IC50 less than 500 nM?
Result: 0 (no)

Q: In the record for C[C@@H](Nc1cc(=O)n(C)c2ccc(Nc3nc(N4CCC(C(=O)N(C)C)CC4)ncc3Cl)cc12)C1CC1 [Example 12b] , is IC50 less than 500 nM?
Result: 1 (yes)

Q: In the record for CC(Nc1nc(=O)n(C)c2ccc(Nc3nc(N4CCC(F)(F)CC4)ncc3Cl)cc12)c1ncccn1 (centres unmarked) [Example 12a] , is IC50 less than 500 nM?
Result: 1 (yes)

Origin of the recorded values: patent US11161839B2
